Target: Recombinant human JAK2 (catalytic domain, amino acids 808-1132) (Homo sapiens)
Construct: catalytic domain, amino acids 808-1132
Sequence (O60674 808-1132): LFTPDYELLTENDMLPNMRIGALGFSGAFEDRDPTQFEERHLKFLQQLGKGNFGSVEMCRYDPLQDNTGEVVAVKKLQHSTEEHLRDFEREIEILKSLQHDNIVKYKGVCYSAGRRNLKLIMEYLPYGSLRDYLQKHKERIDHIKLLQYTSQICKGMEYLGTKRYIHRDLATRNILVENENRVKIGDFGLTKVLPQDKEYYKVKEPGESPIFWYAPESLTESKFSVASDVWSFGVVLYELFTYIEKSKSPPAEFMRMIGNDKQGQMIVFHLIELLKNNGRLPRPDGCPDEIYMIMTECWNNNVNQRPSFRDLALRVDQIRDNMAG
Experiment: JAK2 inhibition assay; further: 0.7 µM ATP
Format: biochemical
Settings: read-out: JAK2 potency IC50
pIC50: −log10 of the molar value.
Below, each of the compounds is paired with its reported pIC50 value.

- compound: "C[C@H](N(C)c1cc(Nc2cc(N)ncn2)c2ncn(C)c2n1)C(C)(C)C [Compound 12]"
  targetSystem: "Recombinant human JAK2 (catalytic domain, amino acids 808-1132) (Homo sapiens)"
  pIC50: 8.52
- compound: "Cc1cc(C#N)ncc1Oc1cc(Nc2ccc(C(=O)NCC(C)O)nn2)c2ncn(C)c2n1 (stereo not shown) [Compound 25]"
  targetSystem: "Recombinant human JAK2 (catalytic domain, amino acids 808-1132) (Homo sapiens)"
  pIC50: 7.11
- compound: "COC(C)CCNc1cc(Nc2cc(Oc3cnc(C#N)cc3C)nc3c2ncn3C)ncn1 (stereo not shown) [Compound 37]"
  targetSystem: "Recombinant human JAK2 (catalytic domain, amino acids 808-1132) (Homo sapiens)"
  pIC50: 7.70
- compound: "COC1CN(C(=O)c2ccc(Nc3cc(Oc4cnc(C#N)cc4C)nc4c3ncn4C)nn2)C1 [Compound 116]"
  targetSystem: "Recombinant human JAK2 (catalytic domain, amino acids 808-1132) (Homo sapiens)"
  pIC50: 7.55

* * *

System: IL-12 activation of STAT4 in NK-92 cells
Experiment: IL-12 activation of STAT4 in NK-92 cells using AphaLISA SureFire technology
Assay type: cell-based
Conditions: Homo sapiens, NK92; IL-12 activation of STAT4 in NK-92 cells, AlphaLISA SureFire; average IC50; read-out: IL12 pSTAT4 IC50
pIC50: −log10 of the molar value.
Is pIC50 at least 7? Then YES. If not, NO.

- compound: "Cc1cc(C#N)ncc1Oc1cc(Nc2ccc(N3C[C@@H](C)O[C@H](C)C3)nn2)c2ncn(C)c2n1 (racemic) [Compound 176]"
  categoryLabel: "YES"
- compound: "Cc1cc(C#N)ncc1Oc1cc(Nc2ccc(C3CCOCC3)cn2)c2ncn(C)c2n1 [Compound 87]"
  categoryLabel: "NO"
- compound: "Cc1cc(C#N)ncc1Oc1cc(Nc2ccc(C(=O)N3CC[C@H](O)C3)cn2)c2ncn(C)c2n1 [Compound 112]"
  categoryLabel: "NO"
- compound: "Cc1cc(C#N)ncc1Oc1cc(Nc2ccc(C(=O)N3CCN(C)CC3)nn2)c2ncn(C)c2n1 [Compound 150]"
  categoryLabel: "NO"
- compound: "Cc1cc(C#N)ncc1Oc1cc(Nc2ccc(OC3CN(C)C3)nn2)c2ncn(C)c2n1 [Compound 90]"
  categoryLabel: "NO"

* * *

Biological target: Recombinant human TYK2 catalytic domain (amino acids 871-1187) (Homo sapiens)
Construct: catalytic domain (amino acids 871-1187)
Sequence (P29597 871-1187): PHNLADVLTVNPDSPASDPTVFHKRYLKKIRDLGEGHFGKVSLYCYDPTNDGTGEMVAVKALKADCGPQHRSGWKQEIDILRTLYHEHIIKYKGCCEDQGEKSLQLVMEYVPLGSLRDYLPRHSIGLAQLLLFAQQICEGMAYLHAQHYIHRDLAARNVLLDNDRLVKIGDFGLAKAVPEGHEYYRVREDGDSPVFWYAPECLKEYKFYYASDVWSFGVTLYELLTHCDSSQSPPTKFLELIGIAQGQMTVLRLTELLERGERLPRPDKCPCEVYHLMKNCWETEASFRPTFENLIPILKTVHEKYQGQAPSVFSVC
Experiment: TYK2 radioactive assay polyGT substrate; further: 0.1 µM ATP
Assay type: biochemical
pIC50: −log10 of the molar value.
Is pIC50 at least 8? Then class 1. If not, class 0.

- compound: "Cc1cc(C#N)ncc1Oc1cc(Nc2ccc(C(=O)N3CC4CC3CO4)cn2)c2ncn(C)c2n1 (centres unmarked)"
  categoryLabel: "class 1"
- compound: "CCNC(=O)c1ccc(Nc2cc(NC(C3CC3)C(F)(F)F)nc3c2ncn3C)cn1 (centres unmarked)"
  categoryLabel: "class 0"
- compound: "Cc1cc(C#N)ncc1Oc1cc(Nc2ccc(C(=O)N3CC4(CCO4)C3)cn2)c2ncn(C)c2n1"
  categoryLabel: "class 1"
- compound: "CO[C@@H]1CN(C(=O)c2ccc(Nc3cc(Oc4cnc(C#N)cc4C)nc4c3ncn4C)nc2)C[C@H]1F (racemic)"
  categoryLabel: "class 1"

* * *

Target: Recombinant human JAK2 (catalytic domain, amino acids 808-1132) (Homo sapiens)
Construct: catalytic domain, amino acids 808-1132
Test: JAK2 inhibition assay; further: 0.7 µM ATP
Conditions: read-out: JAK2 potency IC50
pIC50: −log10 of the molar value.
valueType: pIC50

- molecule: "Cc1cc(C#N)ncc1Oc1cc(Nc2ccc(C(F)(F)F)cn2)c2ncn(C)c2n1"
  valueType: "pIC50"
  reading: 6.88
- molecule: "COC1CC(Nc2cc(Nc3cc(Oc4cnc(C#N)cc4C)nc4c3ncn4C)ncn2)C1 (centres unmarked)"
  valueType: "pIC50"
  reading: 8.04
- molecule: "CC1COCCC1N(C)c1cc(Nc2cc(N)ncn2)c2ncn(C)c2n1 (centres unmarked)"
  valueType: "pIC50"
  reading: 7.95
- molecule: "CC(C)C(Nc1cc(Nc2ccc(S(C)(=O)=O)cn2)c2ncn(C)c2n1)C(F)(F)F (centres unmarked)"
  valueType: "pIC50"
  reading: 7.91
- molecule: "CCNC(=O)c1ccc(Nc2cc(Oc3cnc(C#N)cc3C)nc3c2ncn3C)nc1C"
  valueType: "pIC50"
  reading: 7.50
- molecule: "CCNC(=O)c1cnc(Nc2cc(Oc3cnc(C#N)cc3C)nc3c2ncn3C)cc1C"
  valueType: "pIC50"
  reading: 6.67
- molecule: "Cc1cc(C#N)ncc1Oc1cc(Nc2ccc(S(=O)(=O)N3CCOCC3)cc2)c2ncn(C)c2n1"
  valueType: "pIC50"
  reading: 7.16
- molecule: "COCCN(C)c1ccc(Nc2cc(Oc3cnc(C#N)cc3C)nc3c2ncn3C)nc1"
  valueType: "pIC50"
  reading: 7.38

* * *

Target: Recombinant human JAK1 (catalytic domain, amino acids 866-1154) (Homo sapiens)
Construct: catalytic domain, amino acids 866-1154
Sequence (P23458 866-1154): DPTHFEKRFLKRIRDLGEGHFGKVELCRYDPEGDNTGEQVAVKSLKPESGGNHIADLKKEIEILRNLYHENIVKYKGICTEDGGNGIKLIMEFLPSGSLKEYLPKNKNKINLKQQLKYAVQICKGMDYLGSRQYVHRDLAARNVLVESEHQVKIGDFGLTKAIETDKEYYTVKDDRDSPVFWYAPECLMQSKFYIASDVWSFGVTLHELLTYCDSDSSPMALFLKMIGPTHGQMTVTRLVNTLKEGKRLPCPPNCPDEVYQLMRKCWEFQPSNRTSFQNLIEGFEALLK
Assay: JAK1 inhibition assay
Settings: read-out: JAK1 potency IC50
pIC50: −log10 of the molar value. Where a name gives a salt, the structure may show the parent alone.
Below, each of the molecules is paired with its reported pIC50 value.

- molecule: "Cc1cc(C#N)ncc1N(CC(C)O)c1cc(Nc2cc(N)ncn2)c2ncn(C)c2n1 (stereo not drawn) [Cpd 187]"
  pIC50: 6.90
- molecule: "Cc1cc(C#N)ncc1Oc1cc(Nc2ccc(C(=O)N3CC(C(C)(C)O)C3)nn2)c2ncn(C)c2n1 [Compound 111]"
  pIC50: 6.51
- molecule: "CCNC(=O)c1cnc(Nc2cc(Oc3cnc(C#N)cc3C)nc3c2ncn3C)cc1C [Compound 64]"
  pIC50: 6.46
- molecule: "CC(Nc1cc(Nc2cc(N)ncn2)c2ncn(C)c2n1)C1CCC1 (stereo not drawn) [Compound 94]"
  pIC50: 6.66
- molecule: "CCNC(=O)c1ccc(Nc2cc(NC(C3CC3)C(F)(F)F)nc3c2ncn3C)cn1 (stereo not drawn) [Compound 91]"
  pIC50: 6.80
- molecule: "Cc1cc(C#N)ncc1Oc1cc(Nc2cc(NCCC(C)(C)O)ncn2)c2ncn(C)c2n1 [Compound 33]"
  pIC50: 7.17
- molecule: "Cc1cc(C#N)ncc1Oc1cc(Nc2ccc(C3CCOCC3)cn2)c2ncn(C)c2n1 [Compound 87]"
  pIC50: 7.14
- molecule: "Cn1cnc2c(Nc3ccc(S(C)(=O)=O)cn3)cc(OC(C3CC3)C(F)(F)F)nc21 (stereo not drawn) [Compound 22]"
  pIC50: 7.64
- molecule: "Cc1cc(C#N)ncc1N(CCCO)c1cc(Nc2cc(N)ncn2)c2ncn(C)c2n1 [Compound 5]"
  pIC50: 7.63
- molecule: "Cc1cc(C#N)ncc1Oc1cc(Nc2ccc(C(=O)NCC(C)O)nc2)c2ncn(C)c2n1 (stereo not drawn) [Compound 30]"
  pIC50: 6.40
- molecule: "Cc1cc(C#N)ncc1Oc1cc(Nc2ccc(C(=O)NC3CCC(O)C3)cn2)c2ncn(C)c2n1 (racemic) [Compound 139]"
  pIC50: 7.47
- molecule: "CC(C)[C@@H](Nc1cc(Nc2ccc(C(=O)N(C)C)cn2)c2ncn(C)c2n1)C(F)(F)F [Compound 97]"
  pIC50: 7.66
- molecule: "Cc1cc(C#N)ncc1Oc1cc(Nc2cnn(CCN3CCOCC3)c2)c2ncn(C)c2n1 [Compound 186]"
  pIC50: 7.11
- molecule: "Cc1cc(C#N)ncc1Oc1cc(Nc2cc(NCC3COCCO3)ncn2)c2ncn(C)c2n1 (stereo not drawn) [Compound 35]"
  pIC50: 7.28
- molecule: "Cc1cc(C#N)ncc1Oc1cc(Nc2ccc(N3CCC(N(C)C)C3)cn2)c2ncn(C)c2n1 (stereo not drawn) [Compound 182]"
  pIC50: 6.78
- molecule: "Cc1cc(C#N)ncc1Oc1cc(Nc2ccc(S(C)(=O)=O)cn2)c2ncn(C)c2n1 [Compound 58]"
  pIC50: 7.01
- molecule: "CC1COCCC1N(C)c1cc(Nc2cc(N)ncn2)c2ncn(C)c2n1 (stereo not drawn) [Compound 19]"
  pIC50: 7.09
- molecule: "Cn1cnc2c(Nc3ccc(S(C)(=O)=O)cn3)cc(NC(C3CC3)C(F)(F)F)nc21 (stereo not drawn) [Compound 92]"
  pIC50: 8.02
- molecule: "CN(c1cc(Nc2cc(N)ncn2)c2ncn(C)c2n1)[C@@H]1CCC[C@@H](C#N)C1 (racemic) [Compound 13]"
  pIC50: 7.61
- molecule: "CCNS(=O)(=O)c1ccc(Nc2cc(Oc3cnc(C#N)cc3C)nc3c2ncn3C)cc1 [Compound 53]"
  pIC50: 7.17
- molecule: "Cc1cc(C#N)ncc1Oc1cc(Nc2ccc(CN(C)CCN(C)C)cn2)c2ncn(C)c2n1 [Compound 83, formate salt]"
  pIC50: 6.56
- molecule: "COCCCN(c1cc(Nc2cc(N)ncn2)c2ncn(C)c2n1)c1cnc(C#N)cc1C [Compound 4]"
  pIC50: 7.03
- molecule: "COCCN(C)c1ccc(Nc2cc(Oc3cnc(C#N)cc3C)nc3c2ncn3C)nc1 [Compound 183]"
  pIC50: 7.02
- molecule: "Cc1cc(C#N)ncc1N(c1cc(Nc2cc(N)ncn2)c2ncn(C)c2n1)C1CC1 [Compound 88]"
  pIC50: 8.28
- molecule: "COC1CC(Nc2cc(Nc3cc(Oc4cnc(C#N)cc4C)nc4c3ncn4C)ncn2)C1 (stereo not drawn) [Compound 36]"
  pIC50: 7.39
- molecule: "COCCCNc1cc(Nc2cc(Oc3cnc(C#N)cc3C)nc3c2ncn3C)ncn1 [Compound 32]"
  pIC50: 6.93
- molecule: "Cc1cc(C#N)ncc1Oc1cc(Nc2cnn(C)c2)c2ncn(C)c2n1 [Compound 61]"
  pIC50: 7.22
- molecule: "Cc1cc(C#N)ncc1Oc1cc(Nc2ccc(S(=O)(=O)C(F)F)cc2)c2ncn(C)c2n1 [Compound 68]"
  pIC50: 6.95
- molecule: "Cc1cc(C#N)ncc1Oc1cc(Nc2ccc(N3CCC(N(C)C)CC3)cn2)c2ncn(C)c2n1 [Compound 181]"
  pIC50: 6.82
- molecule: "CN(c1cc(Nc2cc(N)ncn2)c2ncn(C)c2n1)c1c(F)cc(C#N)cc1C1CC1 [Compound 14]"
  pIC50: 7.04
- molecule: "Cc1cc(C#N)ncc1Oc1cc(Nc2ccc(OC3CCN(C)CC3)cn2)c2ncn(C)c2n1 [Compound 86]"
  pIC50: 6.70
- molecule: "C[C@H]1COCC[C@@H]1N(C)c1cc(Nc2cc(N)ncn2)c2ncn(C)c2n1 [Compound 17]"
  pIC50: 7.19
- molecule: "Cc1cc(C#N)ncc1Oc1cc(Nc2ccc(C(F)(F)F)cn2)c2ncn(C)c2n1 [Compound 59]"
  pIC50: 6.34
